The origin of these recorded values is PubChem BioAssay (NCI).

assay: NCI Yeast Anticancer Drug Screen. Data for the bub3 strain (AID 167); conditions: S. cerevisiae bub3 mutant strain, at 50.0 µM
Compounds without any hit were thinned out: in the full panel of roughly 79,000, 15% have a hit. Active and inactive are the calls of the source. No stated cut-off is given here; in the data, active means growth inhibition above about 70%; inactive means the rest.
Hi! Could you answer with just one of these? active, inactive

Past entries and their recorded results:
- Compound: "CC1C(O)=C(O)c2ccccc2N1O (stereo not given)"
  Group: "inactive"
- Compound: "O=C(O)CCC(=O)NNC(=O)CCC(=O)O"
  Group: "inactive"
- Compound: "CN(C)[C@@H]1C(=O)C(C(=O)NCNC2CC(C)(C)N(O)C(C)(C)C2)=C(O)C2(O)C(=O)C3=C(O)c4c(O)cccc4[C@@](C)(O)C3CC12 (stereo not given in full)"
  Group: "inactive"
- Compound: "O=S(=O)(O)c1cc(O)c2ccc3c(S(=O)(=O)O)cc(S(=O)(=O)O)c4ccc1c2c34"
  Group: "inactive"
- Compound: "O=C(NNC1=NCCCCN1)Nc1ccc(Cl)cc1"
  Group: "inactive"
- Compound: "COc1ccc(CN2CCCN(Cc3ccc(OC)cc3OC)C2c2cccc(OC)c2O)c(OC)c1"
  Group: "inactive"

Consider now this further compound.
How did this test come out for `COc1ccccc1-n1nnc2c(N)nc(N)nc21` ?
inactive
